protocol notes: Metabolic stability in rat hepatocytes assessed as half life at 10 uM
Assay type: ADME, cell-based, Hepatocyte
measure name: half-life at 10 µM (h)
The reply should contain only the number, in h.

Form: compound = "COc1cc([Se]C(F)(F)F)c(OC)cc1CCN.Cl" ; half-life at 10 µM = 16

###

tgt: 5-hydroxytryptamine receptor 2B (Homo sapiens, UniProt P41595)
Sequence (P41595 whole entry): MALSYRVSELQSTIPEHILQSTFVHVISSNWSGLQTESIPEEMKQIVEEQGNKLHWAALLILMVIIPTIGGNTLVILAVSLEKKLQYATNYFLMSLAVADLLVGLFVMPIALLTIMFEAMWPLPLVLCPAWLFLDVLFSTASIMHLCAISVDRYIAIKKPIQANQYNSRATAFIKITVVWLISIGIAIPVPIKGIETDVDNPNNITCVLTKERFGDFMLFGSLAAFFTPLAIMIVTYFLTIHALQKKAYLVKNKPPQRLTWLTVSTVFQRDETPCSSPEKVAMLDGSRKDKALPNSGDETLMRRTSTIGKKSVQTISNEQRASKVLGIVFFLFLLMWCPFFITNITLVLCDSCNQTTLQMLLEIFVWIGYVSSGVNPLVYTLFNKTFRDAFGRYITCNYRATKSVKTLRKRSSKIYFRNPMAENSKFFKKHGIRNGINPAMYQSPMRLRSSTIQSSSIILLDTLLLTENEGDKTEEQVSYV
protocol notes: Binding affinity to human [125I]LSD-labeled 5-HT2B receptor expressed in CHO cell membrane incubated for 60 mins
Format: cell membranes
measure name: pKi
Conceptually, pKi converts a concentration in mol/L into minus its log10.

So the reported pKi for "COc1cc([Se]C(F)(F)F)c(OC)cc1CCN.Cl" , on 5-hydroxytryptamine receptor 2B (Homo sapiens, UniProt P41595), turned out to be 8.00

###

protocol notes: Metabolic stability in mouse liver microsomes assessed as half life at 1 uM incubated for 120 mins in presence of NADPH
Type: ADME, Microsome
measure name: half-life at 1 µM

Form: molecule = "COc1cc([Se]C(F)(F)F)c(OC)cc1CCN.Cl" ; half-life at 1 µM = > 2 h

###

tgt: 5-hydroxytryptamine receptor 2B (Homo sapiens, UniProt P41595)
protocol notes: Agonist activity at human 5-HT2B receptor expressed in CHO cells assessed as IP2 production measured after 30 mins incubation by HTRF assay
Format: functional, cell-based
measure name: EC50
Don't forget the unit after the number, please.

Form: compound = "COc1cc([Se]C(F)(F)F)c(OC)cc1CCN.Cl" ; EC50 = 88 nM

###

protocol notes: Volume of distribution at steady state in beagle dog at 0.4 mg/kg, iv measured upto 24 hrs
Format: ADME, organism-based, Canis lupus familiaris
measurement conditions: in vivo, read-out: Vdss
measure name: Vd (L/kg)
The reply should contain only the number, in L/kg.

Form: compound = "COc1cc([Se]C(F)(F)F)c(OC)cc1CCN.Cl" ; Vd = 5.29

###

protocol notes: Tmax in Wistar rat brain at 1 mg/kg, iv measured upto 48 hrs
Type: ADME, organism-based
measure name: Tmax (min)
The reply should contain only the number, in min.

Form: compound = "COc1cc([Se]C(F)(F)F)c(OC)cc1CCN.Cl" ; Tmax = 30

###

Provide the reported Emax of each item.
tgt: 5-hydroxytryptamine receptor 2A (Homo sapiens)
Sequence (P28223 whole entry): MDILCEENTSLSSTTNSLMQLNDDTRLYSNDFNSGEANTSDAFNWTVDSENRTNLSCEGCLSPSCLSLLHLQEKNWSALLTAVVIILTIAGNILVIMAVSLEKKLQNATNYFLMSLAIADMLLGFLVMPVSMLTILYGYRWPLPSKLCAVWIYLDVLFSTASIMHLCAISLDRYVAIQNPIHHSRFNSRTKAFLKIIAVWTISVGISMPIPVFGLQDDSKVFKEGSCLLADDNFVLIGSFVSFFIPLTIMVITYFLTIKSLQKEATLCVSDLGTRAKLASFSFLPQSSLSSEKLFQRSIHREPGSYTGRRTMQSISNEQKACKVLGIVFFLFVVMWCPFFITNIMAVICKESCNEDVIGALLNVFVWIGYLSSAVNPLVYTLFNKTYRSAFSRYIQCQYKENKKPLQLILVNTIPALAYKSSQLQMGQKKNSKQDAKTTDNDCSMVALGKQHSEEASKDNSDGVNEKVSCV
protocol notes: Agonist activity at human 5-HT2A receptor expressed in HEK293 cells assessed as maximal IP2 production measured after 30 mins incubation by HTRF assay relative to control
Assay type: functional, cell-based
measurement conditions: filed as agonist

Form: compound = "C#CCSc1cc(OC)c(CCN)cc1OC" ; Emax = 100%

Form: compound = "COc1cc(CCN)cc(OC)c1SC(F)(F)F" ; Emax = 96%

Form: compound = COc1cc(SC(F)(F)F)c(OC)cc1CC(C)N (configuration not stated) ; Emax = 91%

Form: compound = "C#CCCCSc1cc(OC)c(CCN)cc1OC" ; Emax = 78%

Form: compound = "COc1cc(SCC#N)c(OC)cc1CCN" ; Emax = 77%

Form: compound = "COc1cc(SC(F)(F)F)c(OC)cc1CCNCC1CC1" ; Emax = 63%

Form: compound = "COc1cc([Se]C(F)(F)F)c(OC)cc1CCN.Cl" ; Emax = 87%

###

protocol notes: Half life in Wistar rat brain at 1 mg/kg, iv measured upto 48 hrs
Type: ADME, organism-based
measure name: half-life (h)
The reply should contain only the number, in h.

Form: compound = "COc1cc([Se]C(F)(F)F)c(OC)cc1CCN.Cl" ; half-life = 2.44

Data provenance is ChEMBL document CHEMBL5543140.
